Attribution: paper PMC10673058

Study target: TbDHFR (Trypanosoma brucei brucei)
Construct: pET 11D::TbDHFRHis vector design for the recombinant overexpression of TbDHFR in E. coli; His; made in house; host or cells: E. coli BL21(DE3), vector pET 11D::TbDHFRHis
Sequence (Q27783 28-238 limits assumed): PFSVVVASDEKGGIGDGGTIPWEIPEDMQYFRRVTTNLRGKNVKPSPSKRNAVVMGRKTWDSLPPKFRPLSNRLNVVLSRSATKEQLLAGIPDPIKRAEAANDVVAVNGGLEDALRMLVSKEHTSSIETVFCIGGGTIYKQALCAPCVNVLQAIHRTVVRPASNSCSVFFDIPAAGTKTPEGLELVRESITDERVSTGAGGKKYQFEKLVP
Experiment summary: Spectrophotometric enzyme inhibition assay, recombinant TbDHFR
Assay type: biochemical
Study conditions: recombinant enzyme; >50 = <50% inhibition at 50 μM; read-out: IC50 TbDHFR
pIC50: −log10 of the molar value.
Measured endpoint: pIC50

| Compound | Study target | Measured endpoint | Data value |
| --- | --- | --- | --- |
| C=C(CO)C(=O)O[C@H]1CC(=C)[C@@H]2C[C@H](O)C(=C)[C@@H]2[C@H]2OC(=O)C(=C)[C@@H]21 [Compound 2, cynaropicrin] | TbDHFR (Trypanosoma brucei brucei) | pIC50 | 5.15 |
